- Tested on: LTC4
- Assay Overview: Inhibition of the LTC4-induced contraction of strips of guinea pig lung
- Type: cell-based
- Condition Notes: Cavia porcellus; LTC4 3 ng/ml of bath liquid; lung strips pretreated with indomethacin (10^-6 g/ml); substance added at maximum contraction plateau; 37° C.; read-out: IC50 versus LTC4
- Protocol: The leukotriene-antagonistic action of the substances of the general formula I according to the invention is determined by the inhibition of the leukotriene-induced contraction of strips of guinea pig lung. The method which is used is a modification of the tests described by Foreman, Shelly and Weber (Arch. Int. Pharmacodyn. 278, 193-206 (1985)). Guinea pigs are sacrificed by an overdose of ether. […]
Metric Name: IC50 (µg/mL)
The response must be a number in µg/mL with no trailing unit.

                                   molecule  value
0  CCCS[C@@H](c1ccccc1)[C@H](O)CSCC(=O)OC (racemic) [Compound E]      6

Here's the next entry for you.
Input: May I ask what IC50 has been recorded for COC(=O)COC[C@@H](O)[C@@H](Sc1cccc(OC)c1)c1ccccc1 (racemic) [Compound A] ?
Output: 0.6

* * *

Listed below: IC50 values for each entry.
- Test system: LTD4
- Assay Overview: Inhibition of the LTD4-induced contraction of strips of guinea pig lung
- Assay type: cell-based
- Condition Notes: Cavia porcellus; LTD4 3 ng/ml of bath liquid; lung strips pretreated with indomethacin (10^-6 g/ml); substance added at maximum contraction plateau; 37° C.; read-out: IC50 versus LTD4
- Procedure: The leukotriene-antagonistic action of the substances of the general formula I according to the invention is determined by the inhibition of the leukotriene-induced contraction of strips of guinea pig lung. The method which is used is a modification of the tests described by Foreman, Shelly and Weber (Arch. Int. Pharmacodyn. 278, 193-206 (1985)). Guinea pigs are sacrificed by an overdose of ether. […]
The response must be a number in µg/mL with no trailing unit.

Examples with answers:
                                   compound  test_system  metric_name  value
0  COC(=O)COC[C@@H](O)[C@@H](Sc1cccc(OC)c1)c1ccccc1 (racemic)         LTD4         IC50    0.3
1  COC(=O)CSC[C@H](O)[C@H](Sc1cccc(OC)c1)c1ccccc1         LTD4         IC50    0.1
2  CCCS[C@@H](c1ccccc1)[C@H](O)COCC(=O)OC (racemic)         LTD4         IC50    0.5

Here's the next entry for you.
Input: Record lookup: for LTD4, what IC50 belongs to COC(=O)CSC[C@@H](O)[C@@H](Sc1cccc(OC)c1)c1ccccc1 (racemic) ?
Output: 0.6

* * *

Listed below: IC50 values for each entry.
- System: LTC4
- Assay Overview: Inhibition of the LTC4-induced contraction of strips of guinea pig lung
- Type: cell-based
- Condition Notes: Cavia porcellus; LTC4 3 ng/ml of bath liquid; lung strips pretreated with indomethacin (10^-6 g/ml); substance added at maximum contraction plateau; 37° C.; read-out: IC50 versus LTC4

Examples with answers:
>>> print(df.to_string())
                                   compound  test_system             value
0  COC(=O)CSC[C@@H](O)[C@@H](Sc1cccc(OC)c1)c1ccccc1 (racemic) [Compound B]         LTC4    0.6 to 1 µg/mL
1  COC(=O)CSC[C@H](O)[C@H](Sc1cccc(OC)c1)c1ccccc1 [Compound C]         LTC4  0.3 to 0.6 µg/mL

Here's the next entry for you.
Input: May I ask what IC50 has been recorded for CCCS[C@@H](c1ccccc1)[C@H](O)COCC(=O)OC (racemic) [Compound D] ?
Output: > 10 µg/mL
